These data points were gathered from PubChem BioAssay AID1745844.

# Test system: rodent lifetime carcinogenesis bioassay, tumor incidence TD50
# PROTOCOL TEXT: carcinogenic potency in animals, long-term in vivo studies, CPDB compilation (AID 1745844)
# MEASUREMENT CONTEXT: rat; strain F344/DuCrj; males; in feed; site: brain; lesion: astrocytoma; dosed 104 weeks; study length 104 weeks
RESULT TYPE: TD50

Could you share what TD50 was measured for Nc1ccc2nc3ccccn3c2n1 , tested on rodent lifetime carcinogenesis bioassay, tumor incidence TD50?
281 mg/kg/day

###

# Tested on: rodent lifetime carcinogenesis bioassay, tumor incidence TD50
# PROTOCOL TEXT: carcinogenic potency in animals, long-term in vivo studies, CPDB compilation (AID 1745844)
# MEASUREMENT CONTEXT: mouse; strain B6C3F1; males; inhaled; site: liver; lesion: hepatocellular carcinoma; dosed 13 weeks; study length 104 weeks
RESULT TYPE: TD50 (mg/kg/day)
Give a bare numeral; the unit mg/kg/day is implied.

Please look up its TD50: C=CC=C
23.4

###

# Test system: rodent lifetime carcinogenesis bioassay, tumor incidence TD50
# PROTOCOL TEXT: carcinogenic potency in animals, long-term in vivo studies, CPDB compilation (AID 1745844)
# MEASUREMENT CONTEXT: rat; strain Sprague-Dawley; females; i.p.; site: peritoneum; lesion: sarcoma, NOS; dosed 52 weeks; study length 80 weeks
RESULT TYPE: TD50

Please look up its TD50: COc1cc2c(c3c1c(=O)c1ccccc1n3C)C=CC(C)(C)O2
11.4 mg/kg/day

###

# Tested on: rodent lifetime carcinogenesis bioassay, tumor incidence TD50
# PROTOCOL TEXT: carcinogenic potency in animals, long-term in vivo studies, CPDB compilation (AID 1745844)
# MEASUREMENT CONTEXT: mouse; strain Charles River CD1; females; in feed; site: liver; lesion: several types; types named in the paper; dosed 52 weeks; study length 52 weeks
RESULT TYPE: TD50

Please look up its TD50: CCCCOCCOCCOCc1cc2c(cc1CCC)OCO2
516 mg/kg/day

###

# System: rodent lifetime carcinogenesis bioassay, tumor incidence TD50
# PROTOCOL TEXT: carcinogenic potency in animals, long-term in vivo studies, CPDB compilation (AID 1745844)
# MEASUREMENT CONTEXT: mouse; strain B6C3F1; males; in feed; site: liver; lesion: hepatocellular carcinoma; dosed 96 weeks; study length 96 weeks
RESULT TYPE: TD50

Please look up its TD50: Cc1c(O)cc2c(c1C)OC(C)(CCCC(C)CCCC(C)CCCC(C)C)CC2 (stereo unspecified)
5220 mg/kg/day

###

# System: rodent lifetime carcinogenesis bioassay, tumor incidence TD50
# PROTOCOL TEXT: carcinogenic potency in animals, long-term in vivo studies, CPDB compilation (AID 1745844)
# MEASUREMENT CONTEXT: rat; strain F344/DuCrj; females; in feed; site: colon; lesion: adenocarcinoma; dosed 67 weeks; study length 67 weeks
RESULT TYPE: TD50

Please look up its TD50: Cc1cccn2c1nc1ccc(N)nc12
95.9 mg/kg/day

###

# System: rodent lifetime carcinogenesis bioassay, tumor incidence TD50
# PROTOCOL TEXT: carcinogenic potency in animals, long-term in vivo studies, CPDB compilation (AID 1745844)
# MEASUREMENT CONTEXT: rat; strain Sprague-Dawley; females; in feed; site: mammary gland; lesion: several types; types named in the paper; dosed 46 weeks; study length 75 weeks
Please provide measured TD50 for the entries that follow.

Please look up its TD50: NNc1nc(-c2ccc(N)cc2)cs1
1.03 mg/kg/day

Please look up its TD50: NNc1nc(-c2ccc([N+](=O)[O-])cc2)cs1
1.97 mg/kg/day

###

# System: rodent lifetime carcinogenesis bioassay, tumor incidence TD50
# PROTOCOL TEXT: carcinogenic potency in animals, long-term in vivo studies, CPDB compilation (AID 1745844)
# MEASUREMENT CONTEXT: rat; strain Alpk:APfSD; females; by gavage; site: stomach; lesion: squamous-cell carcinoma; dosed 52 weeks; study length 108 weeks
RESULT TYPE: TD50

Could you share what TD50 was measured for FCCl , tested on rodent lifetime carcinogenesis bioassay, tumor incidence TD50?
69.4 mg/kg/day

###

# Test system: rodent lifetime carcinogenesis bioassay, tumor incidence TD50
# PROTOCOL TEXT: carcinogenic potency in animals, long-term in vivo studies, CPDB compilation (AID 1745844)
# MEASUREMENT CONTEXT: mouse; strain Swiss albino; females; by gavage; site: lung; lesion: several types; types named in the paper; dosed 52 weeks; study length 109 weeks
RESULT TYPE: TD50

Please look up its TD50: CC=NN(C)C=O
5.66 mg/kg/day

###

# System: rodent lifetime carcinogenesis bioassay, tumor incidence TD50
# PROTOCOL TEXT: carcinogenic potency in animals, long-term in vivo studies, CPDB compilation (AID 1745844)
# MEASUREMENT CONTEXT: rat; strain F344/DuCrj; males; in feed; site: salivary gland; lesion: fibrosarcoma; dosed 100 weeks; study length 100 weeks
RESULT TYPE: TD50

Please look up its TD50: Cc1cc2c(nc1N)[nH]c1ccccc12
73.5 mg/kg/day

###

# Test system: rodent lifetime carcinogenesis bioassay, tumor incidence TD50
# PROTOCOL TEXT: carcinogenic potency in animals, long-term in vivo studies, CPDB compilation (AID 1745844)
# MEASUREMENT CONTEXT: rat; strain Fischer 344; females; in feed; site: colon; lesion: adenomatous polyp; dosed 27 weeks; study length 104 weeks
RESULT TYPE: TD50 (mg/kg/day)
Give a bare numeral; the unit mg/kg/day is implied.

Please look up its TD50: COc1ccccc1[N+](=O)[O-]
60.9

###

# System: rodent lifetime carcinogenesis bioassay, tumor incidence TD50
# PROTOCOL TEXT: carcinogenic potency in animals, long-term in vivo studies, CPDB compilation (AID 1745844)
# MEASUREMENT CONTEXT: rat; strain Charles River CD (Sprague-Dawley); males; in feed; site: subcutaneous tissue; lesion: several types; types named in the paper; dosed 77 weeks; study length 103 weeks
RESULT TYPE: TD50

Could you share what TD50 was measured for Cc1ccc(C)c(N)c1 , tested on rodent lifetime carcinogenesis bioassay, tumor incidence TD50?
152 mg/kg/day

###

# Tested on: rodent lifetime carcinogenesis bioassay, tumor incidence TD50
# PROTOCOL TEXT: carcinogenic potency in animals, long-term in vivo studies, CPDB compilation (AID 1745844)
# MEASUREMENT CONTEXT: mouse; strain B6C3F1; females; in feed; site: any site (literature study); lesion: several types; types named in the paper; dosed 90 weeks; study length 105 weeks
RESULT TYPE: TD50 (mg/kg/day)
Give a bare numeral; the unit mg/kg/day is implied.

Could you share what TD50 was measured for CC(=O)Nc1ccc(C(=O)CCl)cc1 , tested on rodent lifetime carcinogenesis bioassay, tumor incidence TD50?
3500

###

# Tested on: rodent lifetime carcinogenesis bioassay, tumor incidence TD50
# PROTOCOL TEXT: carcinogenic potency in animals, long-term in vivo studies, CPDB compilation (AID 1745844)
# MEASUREMENT CONTEXT: rat; strain Fischer 344; females; by gavage; site: palate + pharynx + tongue; lesion: squamous-cell papilloma + squamous-cell carcinoma; dosed 91 weeks; study length 105 weeks
RESULT TYPE: TD50

Please look up its TD50: ClCC(Cl)CCl
2.93 mg/kg/day

###

# System: rodent lifetime carcinogenesis bioassay, tumor incidence TD50
# PROTOCOL TEXT: carcinogenic potency in animals, long-term in vivo studies, CPDB compilation (AID 1745844)
# MEASUREMENT CONTEXT: rat; strain albino; both sexes; in feed; site: any site (literature study); lesion: benign tumor; dosed 120 weeks; study length 120 weeks
Activity calls are given as the source filed them. How the calls were made is not given here.
RESULT TYPE: TD50

Could you share what TD50 was measured for O=C(OOC(=O)c1ccccc1)c1ccccc1 , tested on rodent lifetime carcinogenesis bioassay, tumor incidence TD50?
6480 mg/kg/day (inactive)

###

# Tested on: rodent lifetime carcinogenesis bioassay, tumor incidence TD50
# PROTOCOL TEXT: carcinogenic potency in animals, long-term in vivo studies, CPDB compilation (AID 1745844)
# MEASUREMENT CONTEXT: rat; strain Sprague-Dawley; males; i.p.; site: adrenal gland; lesion: cortical adenoma; dosed 51 weeks; study length 80 weeks
RESULT TYPE: TD50 (mg/kg/day)
Give a bare numeral; the unit mg/kg/day is implied.

Please look up its TD50: COc1cc2c(c3c1c(=O)c1ccccc1n3C)C=CC(C)(C)O2
1.85

###

# Tested on: rodent lifetime carcinogenesis bioassay, tumor incidence TD50
# PROTOCOL TEXT: carcinogenic potency in animals, long-term in vivo studies, CPDB compilation (AID 1745844)
# MEASUREMENT CONTEXT: rat; strain Alpk:APfSD; males; by gavage; site: testis; lesion: interstitial-cell tumor; dosed 52 weeks; study length 125 weeks
RESULT TYPE: TD50

Please look up its TD50: FC(F)(F)CCl
60 mg/kg/day
